assay.target: Bromodomain-containing protein 4 (Homo sapiens, UniProt O60885)
pIC50: −log10 of the molar value.

| compound | pIC50 |
| --- | --- |
| COc1nnc2ccc(N3CCC(c4ccc(OCCN5CCN(C)C(=O)[C@H]5C)cc4)CC3)nn12 [AZD-5153] | 8.30 |

* * *

assay.target: Bromodomain-containing protein 4 (Homo sapiens, UniProt O60885)
protocol.summary: Inhibition of His-epitope tagged BRD4 bromodomain 2 (333 to 460 residues) (unknown origin) using biotinylated histone H4 as substrate after 1 hr by AlphaScreen assay

| compound | IC50 |
| --- | --- |
| CC(=O)N1c2ccc(-c3cnn([C@H]4CCNC[C@H]4F)c3)c(OCC3CCC3)c2CC[C@H]1C | < 50 nM |
| CC(=O)N1c2ccc(-c3cnn(C4CC4)c3)cc2C(OC[C@H]2CC2(F)F)C[C@H]1C (some centres not stated) | < 50 nM |
